organism: Rattus norvegicus; assay: DrugMatrix - Regimen: Daily Repeat; format: toxicity, organism-based, Sprague-Dawley; parameters: regimen Daily Repeat, gender Male, age 6-8 weeks; conditions: in vivo, iv, 0 mg/kg, 120 h, tissue Plasma, dose level Control, time 5 day, vehicle 100 % SALINE
readout_type: LIPASE
Units required after the number.

compound	LIPASE
CCC1=C[C@@H]2CN(C1)Cc1c([nH]c3ccccc13)[C@@](C(=O)OC)(c1cc3c(cc1OC)N(C)[C@H]1[C@@](O)(C(=O)OC)[C@H](OC(C)=O)[C@]4(CC)C=CCN5CC[C@]31[C@@H]54)C2	9.17 u/L
COc1cccc2c1C(=O)c1c(O)c3c(c(O)c1C2=O)C[C@@](O)(C(=O)CO)C[C@@H]3O[C@H]1C[C@H](N)[C@@H](O)[C@H](C)O1 [EPIRUBICIN]	10 u/L
CCc1c2c(nc3ccc(OC(=O)N4CCC(N5CCCCC5)CC4)cc13)-c1cc3c(c(=O)n1C2)COC(=O)[C@]3(O)CC	10 u/L

Entry under review: CC(=O)N[C@@H]1[C@H](Oc2c3cc4cc2Oc2ccc(cc2Cl)[C@@H](O[C@@H]2O[C@@H](CO)[C@@H](O)[C@H](O)[C@@H]2NC(C)=O)[C@@H]2NC(=O)[C@H](NC(=O)[C@@H]4NC(=O)[C@H]4NC(=O)[C@@H](Cc5ccc(c(Cl)c5)O3)NC(=O)[C@H](N)c3ccc(O)c(c3)Oc3cc(O)cc4c3)c3ccc(O)c(c3)-c3c(O[C@H]4O[C@H](CO)[C@@H](O)[C@@H](O)[C@@H]4O)cc(O)cc3[C@@H](C(=O)O)NC2=O)O[C@@H](CO)[C@@H](O)[C@@H]1O . Reported LIPASE?
8.83 u/L

What LIPASE value was documented for this compound, COc1cccc2c1C(=O)c1c(O)c3c(c(O)c1C2=O)C[C@@](O)(C(=O)CO)C[C@@H]3O[C@H]1C[C@H](N)[C@H](O)[C@H](C)O1 ?
11.5 u/L

// LIPASE lookup, key: CC[C@]1(O)C[C@@H]2CN(CCc3c([nH]c4ccccc34)[C@@](C(=O)OC)(c3cc4c(cc3OC)N(C)[C@H]3[C@@](O)(C(=O)OC)[C@H](OC(C)=O)[C@]5(CC)C=CCN6CC[C@]43[C@@H]65)C2)C1
10.83 u/L

====

Form field: SODIUM (one value per entry).
organism: Rattus norvegicus; assay: DrugMatrix - Regimen: Daily Repeat; assay type: toxicity, organism-based, Sprague-Dawley; set-up: regimen Daily Repeat, gender Male, age 6-8 weeks; details: in vivo, po, 1500 mg/kg, 72 h, tissue Plasma, route oral GAVAGE, dose level High, time 3 day, vehicle .5 % CMC
# output: bare number, implied unit MEQ/L

molecule	reading_unit	SODIUM
C[C@]1(Cn2ccnn2)[C@H](C(=O)O)N2C(=O)C[C@H]2S1(=O)=O [TAZOBACTAM]	MEQ/L	146.53
CNC(=C[N+](=O)[O-])NCCSCc1ccc(CN(C)C)o1 [RANITIDINE]	MEQ/L	145.5
NC(=O)c1cnccn1 [PYRAZINAMIDE]	MEQ/L	146
O=C(N[C@H](CO)[C@H](O)c1ccc([N+](=O)[O-])cc1)C(Cl)Cl [CHLORAMPHENICOL]	MEQ/L	143.67
CO[C@H]1/C=C/O[C@@]2(C)Oc3c(C)c(O)c4c(c3C2=O)C2=NC3(CCN(CC(C)C)CC3)NC2=C(NC(=O)/C(C)=C\C=C\[C@H](C)[C@H](O)[C@@H](C)[C@@H](O)[C@@H](C)[C@H](OC(C)=O)[C@@H]1C)C4=O [RIFABUTIN]	MEQ/L	145.43
Cc1cc(=O)n(-c2ccccc2)n1C [ANTIPYRINE]	MEQ/L	143.77

Look up SODIUM: Cc1ccc(S(=O)(=O)NC(=O)NN2CC3CCCC3C2)cc1 (configuration not stated) [GLICLAZIDE]
141.67

====

species on record: Rattus norvegicus; experiment: DrugMatrix - Regimen: Daily Repeat; type: toxicity, organism-based, Sprague-Dawley; design: regimen Daily Repeat, gender Male, age 6-8 weeks; conditions: in vivo, po, 0 mg/kg, 120 h, tissue Plasma, route oral GAVAGE, dose level Control, time 5 day, […]
readout_type: URIC ACID
Note: a bare number is incomplete; add the unit.

Consider the following illustrative entries.
compound	reported_measurement
CC/C(=C(/CC)c1ccc(O)cc1)c1ccc(O)cc1 [DIETHYLSTILBESTROL]	0.52 mg/dL
Clc1ccc(Cl)cc1 [1,4-DICHLOROBENZENE]	0.5 mg/dL
CC(=O)Nc1ccc(O)cc1 [ACETAMINOPHEN]	0.6 mg/dL

What does the data say about its URIC ACID? Entry: O=C(c1ccc(OCCN2CCCCC2)cc1)c1c(-c2ccc(O)cc2)sc2cc(O)ccc12 [RALOXIFENE]
0.52 mg/dL

Need URIC ACID of CC(=O)Nc1cccc(O)c1 [METACETAMOL] , thanks.
1.47 mg/dL

Which URIC ACID reading was recorded for the compound O=C(O)Cc1ccccc1Nc1c(Cl)cccc1Cl [DICLOFENAC] ?
0.78 mg/dL

Given the compound CC(C)Cc1ccc(C(C)C(=O)O)cc1 (centres undefined) [IBUPROFEN] , what is its reported URIC ACID?
0.63 mg/dL

URIC ACID lookup needed for Cc1cccc(Nc2ccncc2S(=O)(=O)NC(=O)NC(C)C)c1 [TORSEMIDE] , thanks.
0.7 mg/dL

Given the compound CC(C)(Oc1ccc(C2CCCc3ccccc32)cc1)C(=O)O (centres undefined) [NAFENOPIN] , what is its reported URIC ACID?
1.12 mg/dL

====

species on record: Rattus norvegicus; assay: DrugMatrix - Regimen: Daily Repeat; assay type: toxicity, organism-based, Sprague-Dawley; parameters: regimen Daily Repeat, gender Male, age 6-8 weeks; details: in vivo, po, 0 mg/kg, 120 h, tissue Blood, route oral GAVAGE, dose level Control, time 5 day, vehicle .5 % CMC
So basically, if HEMATOCRIT comes in under 40% it's yes (1), and if it's 40% or more it's no (0).

molecule	answer_label
OC(CCN1CCCCC1)(c1ccccc1)C1CCCCC1 (centres undefined)	yes (1)
O=C1CCC(N2C(=O)c3ccccc3C2=O)C(=O)N1 (centres undefined) [THALIDOMIDE]	no (0)
CN1C(=O)COc2c(C(=O)NC3CN4CCC3CC4)cc(Cl)cc21 (centres undefined)	yes (1)

Please indicate whether the reported HEMATOCRIT of N=C(N)NC(=O)c1nc(Cl)c(N)nc1N [AMILORIDE] is strictly below 40%.
yes (1)

hey, is HEMATOCRIT for Clc1ccc2c(c1)C(N1CCNCC1)=Nc1ccccc1O2 lower than 40% or not?
yes (1)

====

Listed below: URIC ACID values for each entry.
organism: Rattus norvegicus; test: DrugMatrix - Regimen: Daily Repeat; format: toxicity, organism-based, Sprague-Dawley; set-up: regimen Daily Repeat, gender Male, age 6-8 weeks; details: in vivo, po, 0 mg/kg, 72 h, tissue Plasma, route oral GAVAGE, dose level Control, time 3 day, […]
Answer in mg/dL, number only, no unit symbol.

Using the record for CC(=O)Nc1cccc(O)c1 , report its URIC ACID.
1.75

What URIC ACID value was documented for this compound, CCCCCCCCc1ccc(O)cc1 ?
1.3

# query: URIC ACID of entry CC(C)(Oc1ccc(C2CCCc3ccccc32)cc1)C(=O)O (stereo unspecified)
1.43

Need URIC ACID of Cc1cccc(Nc2ccncc2S(=O)(=O)NC(=O)NC(C)C)c1 [TORSEMIDE] , thanks.
0.48

Return reported URIC ACID; argument: COCCOC(=O)C1=C(C)NC(C)=C(C(=O)OC(C)C)C1c1cccc([N+](=O)[O-])c1 (stereo unspecified)
0.7

I have this compound here, C[C@H]1O[C@@H](O[C@H]2[C@@H](O)C[C@H](O[C@H]3[C@@H](O)C[C@H](O[C@H]4CC[C@@]5(C)[C@H](CC[C@@H]6[C@@H]5CC[C@]5(C)[C@@H](C7=CC(=O)OC7)CC[C@]65O)C4)O[C@@H]3C)O[C@@H]2C)C[C@H](O)[C@@H]1O , and I need its recorded URIC ACID.
0.8

====

# Lookup of reported ALKALINE PHOSPHATASE keyed by entry
organism: Rattus norvegicus; assay: DrugMatrix - Regimen: Daily Repeat; assay type: toxicity, organism-based, Sprague-Dawley; design: regimen Daily Repeat, gender Male, age 6-8 weeks; settings: in vivo, po, 0 mg/kg, 72 h, tissue Plasma, route oral GAVAGE, dose level Control, time 3 day, […]
Write the value in u/L as a bare number.

These recorded examples may help you get a feel for the data.
molecule	reading_unit	ALKALINE PHOSPHATASE
O=C(O)Cc1ccccc1Nc1c(Cl)cccc1Cl [DICLOFENAC]	u/L	404.5
COc1ccc2[nH]c([S+]([O-])Cc3ncc(C)c(OC)c3C)nc2c1 (stereo not drawn) [OMEPRAZOLE]	u/L	350
CCOC(=O)C1=C(C)NC(C)=C(C(=O)OC)C1c1cccc([N+](=O)[O-])c1 (stereo not drawn) [NITRENDIPINE]	u/L	464.83
CCCCCCCCc1ccc(O)cc1 [4-OCTYLPHENOL]	u/L	462.5

Which ALKALINE PHOSPHATASE is reported for this molecule? Cc1cccc(Nc2ccncc2S(=O)(=O)NC(=O)NC(C)C)c1 [TORSEMIDE]
322.83

// returns reported ALKALINE PHOSPHATASE for input C[C@]12CC[C@@H]3c4ccc(O)cc4CC[C@H]3[C@@H]1CC[C@@H]2O [ESTRADIOL]
322.83

Consider the molecule shown here: CC(=O)Nc1ccc(O)cc1 [ACETAMINOPHEN] What is its recorded ALKALINE PHOSPHATASE?
430.5

Which measured ALKALINE PHOSPHATASE value corresponds to CC(C)(Oc1ccc(C2CCCc3ccccc32)cc1)C(=O)O (stereo not drawn) [NAFENOPIN] ?
415.33
